biological target: acetylcholine receptor; assay: SPR, receptor immobilized on CM5 chip, peptide 10 uM
Friendly reminder: Binding affinity (RU) below 100 RU is satisfied, at or above is not satisfied.

These solved cases illustrate the format of a correct answer.
1) RKRITR [6mer-1-331]: not satisfied
2) RKWQTK [6mer-1-292]: not satisfied
3) RRICER [6mer-1-905]: satisfied
4) RLYCKK [6mer-2-424]: not satisfied
5) KRMKWK [6mer-1-899]: satisfied
6) KRESDR [6mer-1-926]: satisfied
7) RKSIRR [6mer-1-296]: not satisfied
8) KQYSRR [6mer-2-467]: not satisfied

API: query returns whether the binder falls strictly under 100 RU in Binding affinity (RU). Query: KKIDDK [6mer-1-883]
satisfied

Can you handle KKDSKK [6mer-1-895] next?
satisfied

Can you handle RRQIQR [6mer-1-325] next?
not satisfied

Can you handle KKQVSR [6mer-1-272] next?
not satisfied

Can you handle RRTSNK [6mer-1-890] next?
satisfied

Can you handle RQLQKK [6mer-2-446] next?
not satisfied
